target: T1, HLA-A*02:01 class I complex (conditional p*HLA*02:01, biotinylated heavy chain with beta2-microglobulin) (human, biotinylated heavy chain); assay: UV peptide exchange, HLA class I ELISA, % of Pos peptide;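 also: Streptavidin-captured HLA complexes after exchange detected via HRP anti-human B2M antibody, absorbance read, colour scales with intact complex, normalized to exchange control peptide as 100%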
T1 construct: UV-labile peptide p* is cleaved and exchanged for the test peptide; also called HLA 2.1
Exch I (%) below 60% gives false; Exch I (%) at or above it gives true.

As a guide, the following entries are already answered.
1. ILNREIDFA (also called M090) [PIK3CA.G118D mutant peptide ILNREIDFA]
false
2. YLDSGIHFV (also called M032) [CTNNB1_S37F5 mimic peptide YLDSGIHFV]
true
3. YMDCGIHSL (also called M021) [CTNNB1_S33C10 mimic peptide YMDCGIHSL]
true
4. VLSDAISAV (also called M121; SOX17_S40312) [SOX17_S403I2 mimic peptide VLSDAISAV]
true
5. KTYPVQLWV (also called M130) [TP53.C141Y mutant peptide KTYPVQLWV]
true
6. MLFSKRHWV (also called M012) [CIC_R215W6 mimic peptide MLFSKRHWV]
true

Kindly determine if Exch I (%) recorded for VMPCEPPEV (also called M232) [TP53_Y220C3 mimic peptide VMPCEPPEV] is above or exactly 60%.
true

Is reported Exch I (%) greater than or equal to 60% here: QLWVDSTPI (also called M181) [TP53_P152L3 mimic peptide QLWVDSTPI]
true

Quick check: does GMAPPQYLV (also called M152) [TP53_H193Y6 mimic peptide GMAPPQYLV] have Exch I (%) greater than or equal to 60%?
false

hey, is Exch I (%) for this one >= 60%? VVSDAISAV (also called M120; SOX17.S4031) [SOX17.S403I mutant peptide VVSDAISAV]
true

Does the reported Exch I (%) for GLKDLLNPI (also called M080) [PIK3CA.E453K mutant peptide GLKDLLNPI] fall at or above the 60% mark?
true

Reported Exch I (%) at or above 60%? VLSDAISAL (also called M123; SOX17_S40316) [SOX17_S403I6 mimic peptide VLSDAISAL]
true

Dear colleague, could you confirm whether GLAPPQLLV (also called M141) [TP53_H193L5 mimic peptide GLAPPQLLV] has Exch I (%) at or above 60%?
false
